MEASUREMENT TARGET: Melanocortin receptor 3 (Homo sapiens, UniProt P41968)
Sequence (P41968 whole entry): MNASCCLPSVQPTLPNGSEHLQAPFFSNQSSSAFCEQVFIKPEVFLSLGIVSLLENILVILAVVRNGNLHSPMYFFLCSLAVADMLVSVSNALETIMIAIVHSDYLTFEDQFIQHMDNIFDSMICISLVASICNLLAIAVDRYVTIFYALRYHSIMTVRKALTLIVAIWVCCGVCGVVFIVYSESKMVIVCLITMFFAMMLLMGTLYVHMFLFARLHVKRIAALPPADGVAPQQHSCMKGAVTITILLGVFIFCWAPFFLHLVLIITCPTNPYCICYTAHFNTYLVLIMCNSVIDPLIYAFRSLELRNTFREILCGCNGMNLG
ASSAY INFO: Displacement of [125I]NDP-MSH from human recombinant MC3 receptor expressed in Sf9 cells
METRIC: Ki (µM)
Field: numeric (µM). Do not append units.

Give Ki for NCCN(C(=O)[C@H](N)Cc1ccc(Cl)cc1)C1CCC2(CCCCC2)CC1 tested on Melanocortin receptor 3 (Homo sapiens, UniProt P41968).
1.7

Answer briefly: Ki recorded on Melanocortin receptor 3 (Homo sapiens, UniProt P41968) for NCCCCCN(Cc1ccccc1)C(=O)[C@H](N)Cc1ccc2ccccc2c1
41

Under Melanocortin receptor 3 (Homo sapiens, UniProt P41968): report Ki of NCCCCCN(Cc1ccccc1)C(=O)[C@H](N)Cc1c[nH]c2ccccc12 .
106

Fill in: Ki on Melanocortin receptor 3 (Homo sapiens, UniProt P41968), entry CSc1ccc(CN(C(=O)CCCc2c(Cc3ccc(O)cc3)[nH]c3ccccc23)C2CCC(CC3CCC(N)CC3)CC2)cc1 (stereo not given)
201

State, for Melanocortin receptor 3 (Homo sapiens, UniProt P41968), measured Ki of the compound listed here: Cc1ccccc1CN(C(=O)CCCc1c[nH]c2ccccc12)C1CCC(CC2CCC(N)CC2)CC1 (stereo not given)
121

---

MEASUREMENT TARGET: Melanocyte-stimulating hormone receptor (Mus musculus, UniProt Q01727)
Sequence (Q01727 whole entry): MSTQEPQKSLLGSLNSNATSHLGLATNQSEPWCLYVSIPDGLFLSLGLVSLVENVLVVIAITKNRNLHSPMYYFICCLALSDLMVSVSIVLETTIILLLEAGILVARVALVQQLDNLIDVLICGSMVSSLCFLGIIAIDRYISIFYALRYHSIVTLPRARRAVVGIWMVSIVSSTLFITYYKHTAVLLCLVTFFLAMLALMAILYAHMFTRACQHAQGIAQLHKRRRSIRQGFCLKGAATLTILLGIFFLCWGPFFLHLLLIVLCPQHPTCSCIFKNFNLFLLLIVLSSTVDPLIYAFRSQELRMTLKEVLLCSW
ASSAY INFO: Displacement of [125I]NDP-MSH from MC1 receptor in mouse B16 cells
Assay type: cell-based
Assignment: determine reported Ki for the given compounds.
Write the number in µM without appending the unit.

Determine from records and report Ki for NC1CCC(CC2CCC(N(Cc3c(Cl)cccc3Cl)C(=O)CCCc3c(Cc4ccc(O)cc4)[nH]c4ccccc34)CC2)CC1 (configuration not stated)
1.6

Identify measured Ki associated with NC1CCC(CC2CCC(N(Cc3c(F)cccc3F)C(=O)CCCc3c[nH]c4ccccc34)CC2)CC1 (configuration not stated)
1.8

Give the reported Ki for this compound. NCCCN(C/C(Cl)=C/c1ccccc1)C(=O)C(=O)c1c[nH]c2ccccc12
1

Indicate its recorded Ki; the compound in question is NC1CCC(CC2CCC(N(C/C(Cl)=C/c3ccccc3)C(=O)COc3ccc4ccccc4c3)CC2)CC1 (stereo in doubt; 10b-36-14)
1.5

Indicate its recorded Ki; the compound in question is C/C(=C\c1ccccc1)CN(CCCN)C(=O)CCCc1cccs1
6.8

Hello, please tell me recorded Ki for this one: NCCN(C(=O)Cc1c[nH]c2ccccc12)C1CCc2ccccc2C1 (configuration not stated)
4

Dear colleague, please send me the reported Ki for NCCCCCN(Cc1ccc2ccccc2c1)C(=O)CCc1c[nH]c2ccccc12 when you can.
14

Hello, please tell me recorded Ki for this one: NC1CCC(CC2CCC(N(Cc3c(F)cccc3F)C(=O)CCCc3c(Cc4ccc(O)cc4)[nH]c4ccccc34)CC2)CC1 (configuration not stated)
2.1

Find the measured Ki of NC(N)=NCCCCN(Cc1ccc2ccccc2c1)C(=O)CCc1c[nH]c2ccccc12 and report it.
12

Look up Ki of NCCCN(C/C=C/c1ccccc1)C(=O)C(=O)c1c[nH]c2ccccc12 and report it.
1.6

Give Ki for the following compound: NC1CCC(CC2CCC(N(Cc3ccccc3F)C(=O)CCCc3c[nH]c4ccccc34)CC2)CC1 (configuration not stated)
2.4

Please indicate Ki recorded for CC1CC(CC2CCC(N(Cc3ccccc3)C(=O)CCCc3c[nH]c4ccccc34)C(C)C2)CCC1N (stereo in doubt; form 1)
0.69

In one line, give reported Ki of the entry N#Cc1ccc(CN(C(=O)CCCc2c[nH]c3ccccc23)C2CCC(CC3CCC(N)CC3)CC2)cc1 (stereo in doubt; form 2) .
1.5

Supply recorded Ki for COc1ccccc1/C=C/CN(C(=O)CCCc1c[nH]c2ccccc12)C1CCC(CC2CCC(N)CC2)CC1 (stereo in doubt; form 2) here.
1.6

Determine its reported Ki: CC1CC(CC2CCC(N(Cc3ccccc3)C(=O)CCCc3c[nH]c4ccccc34)C(C)C2)CCC1N (stereo in doubt; form 4)
1.3

Identify Ki associated with the compound N=C(N)NC1CCC(CC2CCC(N(C/C=C/c3ccccc3)C(=O)CCCc3c[nH]c4ccccc34)CC2)CC1 (configuration not stated)
3.5

Identify Ki associated with the compound N[C@@H]1CCCC[C@H]1N(C/C=C/c1ccccc1)C(=O)CCCc1c[nH]c2ccccc12
12

---

MEASUREMENT TARGET: Melanocortin receptor 3 (Homo sapiens, UniProt P41968)
ASSAY INFO: Displacement of [125I]NDP-MSH from human recombinant MC3 receptor expressed in Sf9 cells
For each record, write down the corresponding Ki.
Express your answer as a number followed by its unit.

Input NCCCCCN(Cc1ccccc1)C(=O)[C@H](N)Cc1ccc([N+](=O)[O-])cc1 , output reported Ki.
162 µM

# return recorded Ki for entry N[C@H]1CC[C@H](C[C@H]2CC[C@H](N(C/C(Cl)=C/c3ccccc3)C(=O)CCCc3c[nH]c4ccccc34)CC2)CC1
45 µM

Return value of Ki for input COc1ccccc1/C=C/CN(C(=O)CCCc1c[nH]c2ccccc12)C1CCC(CC2CCC(N)CC2)CC1 (stereo in doubt; form 2) , no commentary.
31 µM

Determine its reported Ki: C=C(Br)CN(C(=O)CCCc1c[nH]c2ccccc12)C1CCC(CC2CCC(N)CC2)CC1 (stereo in doubt; form 3)
21 µM

---

MEASUREMENT TARGET: UniProt P41968
ASSAY INFO: Displacement of [125I]NDP-MSH from human recombinant MC3 receptor expressed in Sf9 cells
Answer each item with its documented Ki.
Reply with just the number (in µM).

Report measured Ki; entry is NCCCCCN(Cc1ccc2ccccc2c1)C(=O)Cc1c[nH]c2ccccc12
50

Provide one value: measured Ki of COc1ccc(CN(C(=O)CCCc2c[nH]c3ccccc23)C2CCC(CC3CCC(N)CC3)CC2)cc1OC (configuration not stated)
22

Please report Ki for the following compound: CC1CC(CC2CCC(N(Cc3ccccc3)C(=O)CCCc3c[nH]c4ccccc34)C(C)C2)CCC1N (stereo in doubt; form 1)
4.3

Give the reported Ki for this compound. COC(=O)c1ccc(CN(C(=O)CCCc2c(Cc3ccc(O)cc3)[nH]c3ccccc23)C2CCC(CC3CCC(N)CC3)CC2)cc1 (configuration not stated)
46

Identify measured Ki corresponding to CCCCCN(Cc1ccc(N(CC)CC)cc1)C(=O)CCCc1c[nH]c2ccccc12
289

Annotate the compound COc1cc(O)ccc1/C=C/CN(C(=O)CCCc1c[nH]c2ccccc12)C1CCC(CC2CCC(N)CC2)CC1 (stereo in doubt; form 2) with its measured Ki.
51

Quickly give me recorded Ki for NCCCCN(Cc1ccc2ccccc2c1)C(=O)Cc1c[nH]c2ccccc12
63

Return Ki for the following compound: NCCCN(CCc1ccccc1)C(=O)CCCc1c[nH]c2ccccc12
30

Supply reported Ki belonging to this compound: NC1CCC(CC2CCC(N(C/C(Cl)=C/c3ccccc3)C(=O)COc3ccc4ccccc4c3)CC2)CC1 (stereo in doubt; form 2)
289

Supply recorded Ki for N=C(N)NC1CCC(CC2CCC(N(C/C=C/c3ccccc3)C(=O)CCCc3c[nH]c4ccccc34)CC2)CC1 (configuration not stated) here.
23

For the compound NCCCN(Cc1ccccc1)C(=O)CCCc1c[nH]c2ccccc12 , give its reported Ki.
45

Look up Ki of NC1CCC(CC2CCC(N(Cc3ccccc3F)C(=O)CCCc3c[nH]c4ccccc34)CC2)CC1 (configuration not stated) and report it.
20

Using known records, supply Ki for NC(N)=NCCCCN(Cc1ccc2ccccc2c1)C(=O)CCc1c[nH]c2ccccc12
50

Quick one: give measured Ki for NC1CCC(CC2CCC(N(C/C(Cl)=C/c3ccccc3)C(=O)CCCc3c[nH]c4ccccc34)CC2)CC1 (stereo in doubt; form 2)
17

Answer with the recorded Ki of NCCCCCN(C/C(Cl)=C\c1ccccc1)C(=O)CCCc1c[nH]c2ccccc12 only.
5.4

Please give the documented Ki of C=C(Br)CN(C(=O)CCCc1c[nH]c2ccccc12)C1CCC(CC2CCC(N)CC2)CC1 (stereo in doubt; form 2)
29

Indicate the recorded Ki value for this compound: NCCCN(C/C=C/c1ccccc1)C(=O)C(=O)c1c[nH]c2ccccc12
17

---

Field: pKi. Provide a value for each of the compounds that follow.
MEASUREMENT TARGET: Melanocortin receptor 3 (Homo sapiens, UniProt P41968)
ASSAY INFO: Displacement of [125I]NDP-MSH from human recombinant MC3 receptor expressed in Sf9 cells
pKi field: float, defined as -log10 of concentration (mol/L).

Hello, please tell me recorded pKi for this one: C/C(=C/c1ccccc1)CN(CCCCCN)C(=O)CCCc1c[nH]c2ccccc12
4.66

Give me measured pKi, please, for this compound: NCCCN(C/C=C/c1ccccc1)C(=O)c1c[nH]c2ccccc12
3.76

Please supply the value of reported pKi for the item Cc1cccc(CN(C(=O)CCCc2c[nH]c3ccccc23)C2CCC(CC3CCC(N)CC3)CC2)c1 (centres undefined)
4.66

Supply pKi value. Item: NCCCCCN(C/C=C/c1ccccc1)C(=O)CCc1c[nH]c2ccccc12
4.57

Specify reported pKi for the compound shown: CC(Cc1ccccc1)CN(CCCCCCN)C(=O)c1cc2cc(O)ccc2[nH]1 (centres undefined)
4.34

Give me measured pKi, please, for this compound: NCCCCCN(Cc1ccccc1)C(=O)[C@@H](N)Cc1ccc2ccccc2c1
4.41

Look up pKi of NCCCCCN(Cc1ccccc1)C(=O)[C@H](N)Cc1ccc(-c2ccccc2)cc1 and report it.
4.74

Please look at this compound and report its pKi: NC1CCC(CC2CCC(N(Cc3ccncc3)C(=O)CCCc3c[nH]c4ccccc34)CC2)CC1 (stereo in doubt; form 1)
4.55

For the compound NCCN(CCCc1ccccc1)C(=O)CCc1c[nH]c2ccccc12 , give its reported pKi.
3.90

Specify reported pKi for the compound shown: NCCN(C(=O)CCCc1c[nH]c2ccccc12)C1CCC2(CCCCC2)CC1
5.57

// Input: C=C(Br)CN(C(=O)CCCc1c[nH]c2ccccc12)C1CCC(CC2CCC(N)CC2)CC1 (stereo in doubt; form 4) . Output its pKi only.
4.57

Specify measured pKi for N=C(N)NCCN(Cc1ccc2ccccc2c1)C(=O)Cc1c[nH]c2ccccc12 .
4.24

Provide measured pKi value, entry: CC1CC(CC2CCC(N(C/C(Cl)=C/c3ccccc3)C(=O)CCCc3c[nH]c4ccccc34)C(C)C2)CCC1N (stereo in doubt; form 1)
4.19

Give pKi for the following compound: NCCN(Cc1ccccc1)C(=O)CCCc1c[nH]c2ccccc12
4.31

Answer with reported pKi of NCC1CCC(CN(Cc2ccccc2)C(=O)CCCc2c[nH]c3ccccc23)CC1 (centres undefined)
4.57

Let me know recorded pKi for COc1ccccc1/C=C/CN(C(=O)CCCc1c[nH]c2ccccc12)C1CCC(CC2CCC(N)CC2)CC1 (stereo in doubt; form 1) , thanks.
4.77

Fill in pKi for record NC1CCCC(N(Cc2ccccc2)C(=O)CCCc2c[nH]c3ccccc23)C1 (centres undefined)
4.52

// Input: NCCCCCCN(C/C(Cl)=C/c1ccccc1)C(=O)CCCc1c[nH]c2ccccc12 . Output its pKi only.
4.59

Identify the reported pKi for the following entry. N#Cc1ccc(CN(C(=O)CCCc2c[nH]c3ccccc23)C2CCC(CC3CCC(N)CC3)CC2)cc1 (stereo in doubt; form 2)
4.70
